From: patent US20210095007A1

Reported EC50 values for a set of binders
- target desc: T1, Ebola GPdTM (IBT Bioservices) (Ebola virus, UniProt Q05320 33-650)
- T1 sequence: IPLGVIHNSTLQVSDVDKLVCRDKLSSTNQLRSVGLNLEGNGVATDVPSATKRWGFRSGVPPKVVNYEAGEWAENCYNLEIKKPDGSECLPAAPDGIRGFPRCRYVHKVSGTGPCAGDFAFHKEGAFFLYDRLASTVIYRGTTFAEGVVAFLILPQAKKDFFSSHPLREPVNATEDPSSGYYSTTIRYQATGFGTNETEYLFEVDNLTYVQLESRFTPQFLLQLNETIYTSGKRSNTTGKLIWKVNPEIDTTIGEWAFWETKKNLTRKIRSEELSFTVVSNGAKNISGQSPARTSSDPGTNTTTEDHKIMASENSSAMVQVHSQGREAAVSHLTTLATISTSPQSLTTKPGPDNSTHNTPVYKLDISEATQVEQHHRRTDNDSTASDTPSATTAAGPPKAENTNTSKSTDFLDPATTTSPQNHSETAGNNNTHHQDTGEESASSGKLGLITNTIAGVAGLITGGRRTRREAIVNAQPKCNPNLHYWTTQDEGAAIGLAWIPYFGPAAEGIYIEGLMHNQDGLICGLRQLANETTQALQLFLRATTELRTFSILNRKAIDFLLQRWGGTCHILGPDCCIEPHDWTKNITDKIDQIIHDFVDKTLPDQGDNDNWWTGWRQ
- experiment description: ELISA, GPdTM coated at 1 µg/mL, anti-human IgG Fc-HRP detection
Express it in nM; write the number only.

Example results:
• 13C6.1 (antibody, V domains shown) VH: QLTLKESGPTLVKPTQTLSLTCTFSGFSLSTSGVGVGWFRQPPGKALEWLALIWWDDDKYYSPSLKSRLTITKDTSKNQVVLTMTNMDPVDTATYYCARRDPFGYDNAMGYWGQGTTVTVSS VL: DIVMTQSPSFLSASVGDRVTITCKASQNVGTAVAWYQQKPGKAPKLLIYSASNRYSGVPSRFSGSGSGTDFTLTISSLQPEDFATYFCQQYSSYPLTFGGGTKLEIK = 0.136
• 4G7.12 (antibody, V domains shown) VH: QVQLVQSGAEVKKPGSSVKVSCKASGSSFTGFSMNWVRQAPGQSLEWIGNIDTYYGGTTYNGKFKGRVTLTVDKSTSTAYMELSSLRSEDTAVYYCARSAYYGSTFAYWGQGTLVTVSS VL: DIVMTQSPSSLSASVGDRVTITCRASENIYSYLAWYQQKPGKSPKLLVYNAVTLIEGVPSRFSGSGSGTQFSLTISSLQPEDIATYFCQHHFGTPFTFGSGTKVEIK = 0.0888
• 2G4 wild type (parent mouse monoclonal antibody 2G4) (antibody, V domains shown) VH: EVQLQQSGGGLMQPGGSMKLSCVASGFTFSNYWMNWVRQSPEKGLEWVAEIRLKSNNYATHYAESVKGRFTISRDDSKRSVYLQMNTLRAEDTGIYYCTRGNGNYRAMDYWGQGTSVTVSS VL: DIVMTQSPASLSVSVGETVSITCRASENIYSSLAWYQQKQGKSPQLLVYSATILADGVPSRFSGSGSGTQYSLKINSLQSEDFGTYYCQHFWGTPYTFGGGTKLEIK = 0.154
• 13C6 wild type (parent mouse monoclonal antibody 13C6) (antibody, V domains shown) VH: QLTLKESGPGILKPSQTLSLTCSLSGFSLSTSGVGVGWFRQPSGKGLEWLALIWWDDDKYYNPSLKSQLSISKDFSRNQVFLKISNVDIADTATYYCARRDPFGYDNAMGYWGQGTSVTVSS VL: DIVMTQSQKFMSTSVGDRVSLTCKASQNVGTAVAWYQQKPGQSPKLLIYSASNRYTGVPDRFTGSGSGTDFTLTISNMQSEDLADYFCQQYSSYPLTFGAGTKLELR = 0.0747
• 4G7.3 (antibody, V domains shown) VH: QVQLVQSGAEVKKPGSSVKVSCKASGSSFTGFSMNWVRQAPGQGLEWMGNIDTYYGGTTYNGKFKGRVTITADKSTSTAYMELSSLRSEDTAVYYCARSAYYGSTFAYWGQGTLVTVSS VL: DIVMTQSPSSLSASVGDRVTITCRASENIYSYLAWYQQKPGKSPKLLVYNAKTLIEGVPSRFSGSGSGTQFSLTISSLQPEDIATYFCQHHFGTPFTFGSGTKVEIK = 0.176

Documented EC50 of 4G7.11 (antibody, V domains shown) VH: QVQLVQSGAEVKKPGSSVKVSCKASGSSFTGFSMNWVRQAPGQSLEWIGNIDTYYGGTTYNGKFKGRVTLTVDKSTSTAYMELSSLRSEDTAVYYCARSAYYGSTFAYWGQGTLVTVSS VL: DIVMTQSPSSLSASVGDRVTITCRASENIYSYLAWYQQKPGKSPKLLVYNAKTLIEGVPSRFSGSGSGTQFSLTISSLQPEDIATYFCQHHFGTPFTFGSGTKVEIK : 0.145

Documented EC50 of 4G7.2 (antibody, V domains shown) VH: QVQLVQSGAEVKKPGSSVKVSCKASGSSFTGFSMNWVRQAPGQGLEWMGNIDTYYGGTTYNGKFKGRVTITADKSTSTAYMELSSLRSEDTAVYYCARSAYYGSTFAYWGQGTLVTVSS VL: DIQMTQSPSSLSASVGDRVTITCRASENIYSYLAWYQQKPGKSPKLLVYNAKTLIEGVPSRFSGSGSGTDFTFTISSLQPEDIATYFCQHHFGTPFTFGQGTKVEIK : 0.0952

Documented EC50 of 4G7.1 (antibody, V domains shown) VH: QVQLVQSGAEVKKPGSSVKVSCKASGSSFTGFSMNWVRQAPGQGLEWMGNIDTYYGGTTYNGKFKGRVTITADKSTSTAYMELSSLRSEDTAVYYCARSAYYGSTFAYWGQGTLVTVSS VL: DIQMTQSPSSLSASVGDRVTITCRASENIYSYLAWYQQKPGKAPKLLVYNAKTLIEGVPSRFSGSGSGTDFTFTISSLQPEDIATYYCQHHFGTPFTFGQGTKVEIK : 0.182
